System Under Test: S1 variant B.1.1.7: UK (Acro) spike protein (SARS-CoV-2, UniProt P0DTC2 16-1213)
Test: SPR (Carterra LSA); antibody on chip, spike protein as analyte; summary table
Assay Metric: Kd (nM)
Numeric only. Scale: nM

Antibody 1-16 (Fc fusion) EVQLVESGGGLVQPGGSLRLSCAASGRTYAMGWFRQAPGKERELVAEITAGGSTYYADSVKGRFTISADNSKNTAYLQMNSLKQEDTAVYYCAVDGPFGWGQGTLVTVSS = 1.06
Antibody 1-7 (Fc fusion) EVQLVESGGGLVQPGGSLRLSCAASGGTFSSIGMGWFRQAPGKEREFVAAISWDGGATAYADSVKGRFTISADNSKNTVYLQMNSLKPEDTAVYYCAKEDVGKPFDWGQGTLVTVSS = 1.11
Antibody 1-15 (Fc fusion) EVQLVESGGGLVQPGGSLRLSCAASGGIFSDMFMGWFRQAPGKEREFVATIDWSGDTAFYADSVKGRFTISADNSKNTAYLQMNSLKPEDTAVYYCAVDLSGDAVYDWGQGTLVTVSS = 0.828
Antibody 1-1 (Fc fusion) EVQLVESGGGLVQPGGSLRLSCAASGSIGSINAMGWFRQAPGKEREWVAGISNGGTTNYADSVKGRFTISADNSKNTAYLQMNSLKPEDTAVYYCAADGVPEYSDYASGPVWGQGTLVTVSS = 0.867
Antibody 1-10 (Fc fusion) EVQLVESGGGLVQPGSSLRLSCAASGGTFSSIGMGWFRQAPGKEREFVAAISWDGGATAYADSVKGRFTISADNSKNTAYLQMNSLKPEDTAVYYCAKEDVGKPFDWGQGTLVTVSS = 0.481

Qu. # get_value(readout='Kd', item= Antibody 1-8 (Fc fusion) EVQLVESGGGLVQPGGSLRLSCAASGRTLSRYTMGWFRQAPGKEREFVASITSGGTTNYADSVKGRFTISADNSKNTAYLQMNSLKPEDTAVYYCAKEDVGKPFDWGQGTLVTVSS )
Ans. 2.26

Qu. Entry to check: Antibody 1-13 (Fc fusion) EVQLVESGGGLVQPGGSLRLSCAASGRTTFSSYTMGWFRQAPGKEREFVASITRSGVLNYADSVKGRFTISADNSKNTAYLQMNSLKPEDTAVYYCAKEDVGKPFDWGQGTLVTVSS
Ans. 5.18
